Assay: Test 4: metabolic stability test in human hepatic microsome
Type: in vitro ADME
Details: 0.1 mg/mL microsome, 0.1 μmol/L compound, NADPH, 37° C., 30 minutes
PROPERTY MEASURED: Metabolic stability in human hepatic microsome (mL/min/mg protein)

| COMPOUND | UNIT SPEC | READING QUALIFIER | REPORTED RESULT |
| --- | --- | --- | --- |
| Cn1cc2c(n1)CCCN(CCN1CCN(c3nsc4ccccc34)CC1)C2=O [Example 42] | mL/min/mg protein | = | 0.100 |
| Cc1nccc2c1C(=O)N(CCN1CCN(c3noc4ccccc34)CC1)CC2 [Example 85] | mL/min/mg protein | = | 0.046 |
| O=C1c2cnccc2CCN1CCN1CCC(c2noc3ccccc23)CC1 [Example 13] | mL/min/mg protein | < | 0.01 |
| Cc1nc2c(o1)C(=O)N(CCN1CCN(c3nsc4ccccc34)CC1)CCC2 [Example 46] | mL/min/mg protein | = | 0.018 |
| CCc1ccc2c(n1)C(=O)N(CCN1CCC(c3noc4ccccc34)CC1)CC2 [Example 185] | mL/min/mg protein | < | 0.05 |

====

Target: human 5-HT1A receptor (Homo sapiens (Human))
Sequence (P08908 whole entry): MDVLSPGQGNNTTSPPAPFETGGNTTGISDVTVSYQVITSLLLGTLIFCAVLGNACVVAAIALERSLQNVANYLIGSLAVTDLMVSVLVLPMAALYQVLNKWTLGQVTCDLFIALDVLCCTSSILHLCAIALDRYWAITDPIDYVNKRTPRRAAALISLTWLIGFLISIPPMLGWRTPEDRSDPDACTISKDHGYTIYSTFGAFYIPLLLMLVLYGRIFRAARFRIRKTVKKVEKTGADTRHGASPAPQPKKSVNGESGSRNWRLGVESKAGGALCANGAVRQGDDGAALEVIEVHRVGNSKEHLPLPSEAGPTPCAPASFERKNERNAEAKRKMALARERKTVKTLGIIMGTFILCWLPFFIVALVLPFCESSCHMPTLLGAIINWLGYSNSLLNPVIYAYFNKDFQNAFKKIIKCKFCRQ
Assay: Test 2: agonist activity for human 5-HT1A receptor ([35S]GTPγS binding)
Type: biochemical
Conditions: agonist activity in the presence of 10 μM compound, relative to 100 μmol/L 5-HT
Here, each record is paired with measured Emax at 10 µM data.

| COMPOUND SMILES | Emax at 10 µM [%] |
| --- | --- |
| Cn1nc(Br)c2c1CCN(CCN1CCN(c3nsc4ccccc34)CC1)C2=O | 45 |
| Cc1ccc2c(C3CCN(CCn4ccc5cccnc5c4=O)CC3)noc2c1 | 5 |
| O=C1c2cnccc2CCN1CCN1CCC(c2noc3ccccc23)CC1 | 56 |
| COc1ccc2c(n1)C(=O)N(CCN1CCC(c3noc4ccccc34)CC1)CC2 | 55 |
| Cc1cc2c(cn1)C(=O)N(CCN1CCC(c3noc4ccccc34)CC1)CC21CC1 | 59 |
| COc1ccc2c(n1)C(=O)N(CCN1CCN(c3noc4ccccc34)CC1)CC2 | 39 |

====

Listed here: items and their measured Metabolic stability in human hepatic microsome.
Test: Test 4: metabolic stability test in human hepatic microsome
Type: in vitro ADME
Conditions: 0.1 mg/mL microsome, 0.1 μmol/L compound, NADPH, 37° C., 30 minutes
PROPERTY MEASURED: Metabolic stability in human hepatic microsome

| COMPOUND | REPORTED RESULT |
| --- | --- |
| O=C1c2ncccc2CCN1CCN1CCC(c2noc3cc(F)ccc23)CC1 [Example 125] | <0.05 mL/min/mg protein |
| Cc1nc2c(o1)C(=O)N(CCN1CCC(c3noc4ccccc34)CC1)CCC2 | <0.05 mL/min/mg protein |
| Cn1ncc2c1CCN(CCN1CCC(c3noc4ccccc34)CC1)C2=O | <0.05 mL/min/mg protein |
| Cc1ccc2c(n1)C(=O)N(CCN1CCC(c3noc4ccccc34)CC1)CC2 | <0.05 mL/min/mg protein |
| Cc1nc(C)c2c(n1)CCN(CCN1CCC(c3noc4ccccc34)CC1)C2=O | <0.05 mL/min/mg protein |
| Cn1cc2c(n1)CCN(CCN1CCN(c3nsc4ccccc34)CC1)C2=O | 0.085 mL/min/mg protein |
| O=C1c2nc(F)ccc2CCN1CCN1CCC(c2noc3ccccc23)CC1 | <0.05 mL/min/mg protein |
| O=C1c2ncccc2CCN1CCN1CCC(c2noc3cc(F)ccc23)CC1 [Example 4] | 0.011 mL/min/mg protein |
| Cc1ncc2c(n1)CCN(CCN1CCN(c3nsc4ccccc34)CC1)C2=O | 0.070 mL/min/mg protein |
